Source: ChEMBL document CHEMBL3870338

Readings of pKi for the listed compounds
systemUnderTest: Carbonic anhydrase 4 (Homo sapiens, UniProt P22748)
Sequence (P22748 whole entry): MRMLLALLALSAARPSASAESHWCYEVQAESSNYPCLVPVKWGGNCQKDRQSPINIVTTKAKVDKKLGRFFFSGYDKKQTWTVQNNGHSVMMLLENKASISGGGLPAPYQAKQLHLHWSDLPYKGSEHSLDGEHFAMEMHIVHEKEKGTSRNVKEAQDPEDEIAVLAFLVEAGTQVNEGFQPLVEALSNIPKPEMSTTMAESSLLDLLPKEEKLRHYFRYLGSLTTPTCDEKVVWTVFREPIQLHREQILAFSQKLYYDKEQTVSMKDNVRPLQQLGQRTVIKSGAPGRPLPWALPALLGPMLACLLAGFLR
experimentDescription: Inhibition of human recombinant carbonic anhydrase 4 expressed in Escherichia coli assessed as reduction in CO2 hydration preincubated for 15 mins prior to testing measured for 10 to 100 secs by stopped-flow assay
pKi: −log10 of the molar value.

Solved cases (4 shown):
* N#CC1=C(N)OC2=C(C(=O)CCC2)C1c1cccc(-c2nnn[nH]2)c1 (stereo not given) | < 5.00
* N#CC1=C(N)OC2=C(C(=O)CCC2)C1c1ccc(-c2nnn[nH]2)cc1 (stereo not given) | < 5.00
* O=Cc1cccc(-c2nnn[nH]2)c1 | < 5.00
* CC1(C)CC(=O)C2=C(C1)OC1=C(C(=O)CC(C)(C)C1)C2c1cccc(-c2nnn[nH]2)c1 | < 5.00

# context switch: different compound, same pKi
Data request: State, in one line, measured pKi of "O=C1CCCC2=C1C(c1ccc(-c3nnn[nH]3)cc1)C1=C(CCCC1=O)O2"
Data returned: < 5.00

* * *

systemUnderTest: Carbonic anhydrase 1 (Homo sapiens)
Sequence (P00915 whole entry): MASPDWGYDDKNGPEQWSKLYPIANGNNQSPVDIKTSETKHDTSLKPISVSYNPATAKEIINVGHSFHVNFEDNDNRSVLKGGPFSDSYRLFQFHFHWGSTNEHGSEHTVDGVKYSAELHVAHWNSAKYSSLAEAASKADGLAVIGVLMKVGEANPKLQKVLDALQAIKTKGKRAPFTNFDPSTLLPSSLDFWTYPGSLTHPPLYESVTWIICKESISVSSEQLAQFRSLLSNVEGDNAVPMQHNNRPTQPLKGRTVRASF
experimentDescription: Inhibition of human recombinant carbonic anhydrase 1 expressed in Escherichia coli assessed as reduction in CO2 hydration preincubated for 15 mins prior to testing measured for 10 to 100 secs by stopped-flow assay
measure: Ki

Here's what some known entries look like.
- CC1(C)CC(=O)C2=C(C1)OC(N)=C(C#N)C2c1ccc(-c2nnn[nH]2)cc1 (centres undefined): > 10 µM
- O=C1CCCC2=C1C(c1cccc(-c3nnn[nH]3)c1)C1=C(CCCC1=O)O2: > 10 µM
- CC1(C)CC(=O)C2=C(C1)OC(N)=C(C#N)C2c1cccc(-c2nnn[nH]2)c1 (centres undefined): > 10 µM

# context switch: different molecule, same Ki
Data request: Query Ki for N#CC1=C(N)OC2=C(C(=O)CCC2)C1c1ccc(-c2nnn[nH]2)cc1 (centres undefined)
Data returned: > 10 µM

* * *

systemUnderTest: Carbonic anhydrase 2 (Homo sapiens)
experimentDescription: Inhibition of human recombinant carbonic anhydrase 2 expressed in Escherichia coli assessed as reduction in CO2 hydration preincubated for 15 mins prior to testing measured for 10 to 100 secs by stopped-flow assay
pKi: −log10 of the molar value.
measure: pKi

Answered examples (5):
- CC1(C)CC(=O)C2=C(C1)OC(N)=C(C#N)C2c1ccc(-c2nnn[nH]2)cc1 (stereo not given): < 5.00
- O=Cc1cccc(-c2nnn[nH]2)c1: < 5.00
- N#CC1=C(N)OC2=C(C(=O)CCC2)C1c1cccc(-c2nnn[nH]2)c1 (stereo not given): < 5.00
- CC1(C)CC(=O)C2=C(C1)OC1=C(C(=O)CC(C)(C)C1)C2c1ccc(-c2nnn[nH]2)cc1: < 5.00
- O=C1CCCC2=C1C(c1cccc(-c3nnn[nH]3)c1)C1=C(CCCC1=O)O2: < 5.00

Data request: Answer with the recorded pKi for the molecule listed here: N#CC1=C(N)OC2=C(C(=O)CCC2)C1c1ccc(-c2nnn[nH]2)cc1 (stereo not given)
Data returned: < 5.00

Data request: Return pKi (reported value) for this molecule: "O=Cc1ccc(-c2nnn[nH]2)cc1"
Data returned: < 5.00

Data request: Give me measured pKi, please, for this molecule: CC1(C)CC(=O)C2=C(C1)OC(N)=C(C#N)C2c1cccc(-c2nnn[nH]2)c1 (stereo not given)
Data returned: < 5.00

Data request: Read the entry "O=C1CCCC2=C1C(c1ccc(-c3nnn[nH]3)cc1)C1=C(CCCC1=O)O2" and write its reported pKi.
Data returned: < 5.00

Data request: Please indicate pKi recorded for "CC1(C)CC(=O)C2=C(C1)OC1=C(C(=O)CC(C)(C)C1)C2c1cccc(-c2nnn[nH]2)c1"
Data returned: < 5.00
